Target: T1, apical domain of cynomolgus CD71 (cynomolgus, UniProt A0A2K5X958 189-383)
T1 construct: domain: apical domain; also called Cyno apical domain
T1 sequence (A0A2K5X958 entry or part of it): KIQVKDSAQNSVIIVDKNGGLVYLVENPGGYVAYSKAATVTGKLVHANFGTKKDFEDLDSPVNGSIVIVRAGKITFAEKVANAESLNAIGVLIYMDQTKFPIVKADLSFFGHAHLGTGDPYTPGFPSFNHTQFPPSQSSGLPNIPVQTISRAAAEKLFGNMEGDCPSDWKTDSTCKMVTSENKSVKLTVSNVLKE
Assay: primary ELISA, signal ratio to HSA
recordedEndpoint: Cyno apical domain:HSA
Form field (numeric): enter value without unit.

Query: Entry CD71-binding FN3 domain of SEQ ID NO: 189 (designed binder) MSLPAPKNLVVSRVTEDSARLSWTAPDAAFDSFEIGYFEHTYYGEAIVLTVPGSERSYDLTGLKPGTEYWVQIGGVKGGNWSAPLSAIFTT : reported Cyno apical domain:HSA = ?
Result: 1950

***
Query: # Cyno apical domain:HSA lookup, item CD71-binding FN3 domain of SEQ ID NO: 145 (designed binder) MSLPAPKNLVVSRVTEDSARLSWTAPDAAFDSFFIGYLEPQPPGEAIALLVPGSERSYDLTGLKPGTEYNVTIQGVKGGFPSHPLSAKFTT
Result: 196
